- tested target: eEF-2K (Homo sapiens, UniProt O00418)
- Sequence (O00418 whole entry): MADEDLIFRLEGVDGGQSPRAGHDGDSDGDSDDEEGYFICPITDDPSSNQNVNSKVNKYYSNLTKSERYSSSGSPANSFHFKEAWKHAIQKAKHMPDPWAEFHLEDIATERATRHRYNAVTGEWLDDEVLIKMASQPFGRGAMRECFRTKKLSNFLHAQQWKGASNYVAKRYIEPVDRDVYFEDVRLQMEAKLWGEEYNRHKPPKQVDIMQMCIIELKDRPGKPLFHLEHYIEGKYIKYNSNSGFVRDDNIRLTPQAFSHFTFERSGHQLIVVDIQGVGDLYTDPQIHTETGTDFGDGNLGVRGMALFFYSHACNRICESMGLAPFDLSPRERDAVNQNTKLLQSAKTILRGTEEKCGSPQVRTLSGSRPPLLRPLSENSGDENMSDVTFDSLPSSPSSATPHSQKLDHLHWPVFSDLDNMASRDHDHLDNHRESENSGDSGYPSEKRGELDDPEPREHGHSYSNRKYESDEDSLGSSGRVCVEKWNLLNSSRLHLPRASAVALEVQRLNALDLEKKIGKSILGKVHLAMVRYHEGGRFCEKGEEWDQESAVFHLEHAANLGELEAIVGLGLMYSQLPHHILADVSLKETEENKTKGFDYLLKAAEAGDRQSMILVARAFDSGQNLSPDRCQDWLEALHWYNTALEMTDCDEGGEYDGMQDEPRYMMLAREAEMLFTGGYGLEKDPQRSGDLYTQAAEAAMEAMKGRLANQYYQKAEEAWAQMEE
test readout: pKd
The meaning of pKd here: minus log10 of the concentration in molar units.

Data request, read-out pKd, for Nc1ncnc2c1ncn2[C@@H]1O[C@H](COP(=O)(O)OP(=O)(O)OP(=O)(O)O)[C@@H](O)[C@H]1O [ATP, adenosine triphosphate]
4.79

Data origin: paper PMC3673019
